The measured values listed here are drawn from patent US20230108906A1.

test system: HBV rcDNA in HepDE19 cells; test: HepDE19 assay with bDNA quantitation of HBV rcDNA; type: cell-based, hepatitis B virus (HBV); settings: Hepatitis B virus, HepDE19, 168 h, inhibition of rcDNA formation in HepDE19 cells (HepG2 derived), Tet-free medium, 7 day incubation, Quantigene 2.0 bDNA readout, top concentration 25 μM; read-out: DE-19bDNA EC50
observable: EC50 (µM)
Only the number, expressed in µM, is required.

Per the reported HBV rcDNA in HepDE19 cells data, CN(C(=O)Nc1ccc(F)c(C#N)c1)C1COCc2[nH]c(=O)c3ccc(F)cc3c21 (stereo not shown) has EC50 of 0.05

CCN(C(=O)Nc1ccc(F)c(C)c1)C1COCc2[nH]c(=O)c3cc(Cl)ccc3c21 (stereo not shown) tested on HBV rcDNA in HepDE19 cells gave EC50: 0.02

EC50 for HBV rcDNA in HepDE19 cells with input CN(C(=O)Nc1ccc(Cl)c(F)c1)[C@@H]1COCc2[nH]c(=O)c3cc(F)c(F)cc3c21 equals 0.02

The reported HBV rcDNA in HepDE19 cells EC50 of CN(C(=O)Nc1ccc(F)c(Cl)c1)C1CS(=O)(=O)Cc2[nH]c(=O)c3cc(F)ccc3c21 (single isomer, unassigned) is 2.3

EC50 value, target or system HBV rcDNA in HepDE19 cells, for CN(C(=O)Nc1cc(F)c(F)c(F)c1)C1CCCc2[nH]c(=O)c3cc(F)ccc3c21 (stereo not shown) : 0.1

Summary: CN(C(=O)Nc1ccc(F)c(Cl)c1)C1COCc2[nH]c(=O)c3c(F)c(F)ccc3c21 (stereo not shown) , HBV rcDNA in HepDE19 cells, EC50 = 0.19

Bench note, HBV rcDNA in HepDE19 cells: CN(C(=O)Nc1ccc(F)c(Cl)c1)C1CCCc2[nH]c(=O)c3c(c21)COCC3 (stereo not shown) [Compound 80] , EC50 reads 2.8

----------
test system: HBV rcDNA in HepDE19 cells; assay: HepDE19 assay with bDNA quantitation of HBV rcDNA; format: cell-based, hepatitis B virus (HBV); settings: Hepatitis B virus, HepDE19, 168 h, inhibition of rcDNA formation in HepDE19 cells (HepG2 derived), Tet-free medium, 7 day incubation, Quantigene 2.0 bDNA readout, top concentration 25 μM; read-out: DE-19bDNA EC50
observable: pEC50
Reminder that pEC50 means the negative base-10 logarithm of the concentration expressed in mol/L.

# count of solved cases: 3
# pEC50 (compound: CC(=O)N1Cc2[nH]c(=O)c3cc(F)ccc3c2C(N(C)C(=O)Nc2ccc(F)c(Cl)c2)C1 (single isomer, unassigned) ) is 5.92

Record CCN(C(=O)Nc1ccc(F)c(Cl)c1)C1COCc2[nH]c(=O)c3cc(C#N)ccc3c21 (stereo not shown) , field pEC50: 6.44

Reported pEC50 of CN(C(=O)Nc1ccc(F)c(Cl)c1)C1COCc2[nH]c(=O)c3cc(F)c(F)cc3c21 (racemic) : 8.00

As a next step, examine the compound that follows.
Form field pEC50, entry CN(C(=O)Nc1ccc(F)c(C(F)F)c1)[C@@H]1COCc2c1c1cc(F)c(F)cc1c(=O)n2CCN : 6.04

----------
tested on: HBV rcDNA in HepDE19 cells; test: HepDE19 assay with bDNA quantitation of HBV rcDNA; assay type: cell-based, hepatitis B virus (HBV); settings: Hepatitis B virus, HepDE19, 168 h, inhibition of rcDNA formation in HepDE19 cells (HepG2 derived), Tet-free medium, 7 day incubation, Quantigene 2.0 bDNA readout, top concentration 25 μM; read-out: DE-19bDNA EC50
pEC50: −log10 of the molar value.
Classification field: criterion met = pEC50 at or over 6; criterion not met = pEC50 under 6.

Solved cases below.
Input line: # check: pEC50 of CN(C(=O)Nc1ccc(F)c(C#N)c1)C1CS(=O)(=O)Cc2[nH]c(=O)c3cc(F)c(F)cc3c21 (single isomer, unassigned) is greater than or equal to 6
Output line: criterion not met

Input line: Reported pEC50 reaches at least 6 for CN(C(=O)N1Cc2ccc(F)cc2C1)[C@@H]1COCc2[nH]c(=O)c3cc(F)c(F)cc3c21 ?
Output line: criterion not met

Input line: Record CN(C(=O)Nc1ccc(F)c(Cl)c1)C1CCCCc2[nH]c(=O)c3ccccc3c21 (stereo not drawn) ; criterion: pEC50 no lower than 6. Met?
Output line: criterion met

Input line: pEC50 >= 6 for CN(C(=O)N1Cc2ccc(Br)cc2C1)[C@@H]1COCc2[nH]c(=O)c3cc(F)c(F)cc3c21 ?
Output line: criterion not met

Input line: pEC50 >= 6 for CN(C(=O)Nc1ccc(F)c(Cl)c1)C1CCc2[nH]c(=O)c3ccccc3c21 (stereo not drawn) ?
Output line: criterion met

Next:
Input line: Could you please find out whether CN(C(=O)Nc1ccc(F)c(C#N)c1)[C@@H]1COCc2[nH]c(=O)c3cc(F)ccc3c21 (single isomer, unassigned) has pEC50 that meets 6 or exceeds it?
Output line: criterion met

----------
test system: HBV rcDNA in HepDE19 cells; experiment: HepDE19 assay with bDNA quantitation of HBV rcDNA; format: cell-based, hepatitis B virus (HBV); conditions: Hepatitis B virus, HepDE19, 168 h, inhibition of rcDNA formation in HepDE19 cells (HepG2 derived), Tet-free medium, 7 day incubation, Quantigene 2.0 bDNA readout, top concentration 25 μM; read-out: DE-19bDNA EC50
observable: pEC50
Entry type: numeric. Quantity: pEC50, the -log10 of concentration in molar units.

In the examples that follow, each entry is paired with its recorded pEC50.
Lookup result for CN(C(=O)Nc1ccc(F)c(Cl)c1)C1CC(C)(C)Cc2[nH]c(=O)c3ccccc3c21 (stereo not shown) ; measured pEC50: 4.92

Quick note, pEC50 for CN(C(=O)NC1(C(F)(F)F)CC1)[C@@H]1COCc2[nH]c(=O)c3cc(F)c(F)cc3c21 landed at 5.05

# pEC50 (compound: CN(C(=O)Nc1ccc(Cl)c(C#N)c1)[C@@H]1COCc2[nH]c(=O)c3cc(F)c(F)cc3c21 ) is 7.52

Lab note: CN(C(=O)Nc1ccc(F)c(C#N)c1)C1COCc2[nH]c(=O)c3cc(F)c(F)cc3c21 (racemic) gave pEC50 of 7.70

Value of measured pEC50 for the entry Cc1cc(NC(=O)N(C)C2COCc3[nH]c(=O)c4ccc(F)cc4c32)ccc1F (stereo not shown) : 7.70

Please fill in: pEC50 reported for O=C(Nc1ccc(F)c(Cl)c1)N(CCCO)C1CCCCc2[nH]c(=O)c3ccccc3c21 (stereo not shown) = 6.22

Field: next compound
Per the records, this compound ( CCN(C(=O)Nc1ccc(F)c(C#N)c1)[C@@H]1COCc2[nH]c(=O)c3cc(F)c(F)cc3c21 (single isomer, unassigned) ) has pEC50 equal to 8.00

----------
test system: HBV rcDNA in HepDE19 cells; test: HepDE19 assay with bDNA quantitation of HBV rcDNA; format: cell-based, hepatitis B virus (HBV); details: Hepatitis B virus, HepDE19, 168 h, inhibition of rcDNA formation in HepDE19 cells (HepG2 derived), Tet-free medium, 7 day incubation, Quantigene 2.0 bDNA readout, top concentration 25 μM; read-out: DE-19bDNA EC50
Listing: EC50 of selected molecules
API: value field is a number in nM; no unit string.

Lab entry: HBV rcDNA in HepDE19 cells assay, molecule CCN(C(=O)Nc1ccc(F)c(Cl)c1)C1COCc2[nH]c(=O)c3ccc(F)cc3c21 (stereo not shown) , EC50 = 20

The measured EC50 that CN(C(=O)Nc1ccc(F)c(C(F)F)c1)C1COCc2[nH]c(=O)c3cc(F)ccc3c21 (stereo not shown) [Compound 124] showed for HBV rcDNA in HepDE19 cells is 10

Form field EC50 for item CN(C(=O)Nc1ccc(F)c(Cl)c1)C1COCc2[nH]c(=O)c3ccc(F)cc3c21 (stereo not shown) on HBV rcDNA in HepDE19 cells: 20

Now take the following molecule into account.
Measured EC50 for this entry COc1nc2c(c3cc(F)c(F)cc13)[C@H](N(C)C(=O)Nc1ccc(F)c(Cl)c1)COC2 on HBV rcDNA in HepDE19 cells: 80

----------
system: HBV rcDNA in HepDE19 cells; test: HepDE19 assay with bDNA quantitation of HBV rcDNA; assay type: cell-based, hepatitis B virus (HBV); conditions: Hepatitis B virus, HepDE19, 168 h, inhibition of rcDNA formation in HepDE19 cells (HepG2 derived), Tet-free medium, 7 day incubation, Quantigene 2.0 bDNA readout, top concentration 25 μM; read-out: DE-19bDNA EC50
Reported pEC50 values for the following compounds.
Recall that pEC50 is obtained by taking minus log10 of the concentration measured in molar.

Examples from the recorded data:
The measured pEC50 associated with CN(C(=O)Nc1ccc(F)c(C#N)c1)C1COCc2[nH]c(=O)c3cc(Cl)ccc3c21 (stereo not shown) reads 7.10

Recorded result, CN(C(=O)Nc1ccc(F)c(Cl)c1)C1COCc2[nH]c(=O)c3sccc3c21 (stereo not shown) , pEC50: 7.52

pEC50 reported for this compound CN(C(=O)Nc1ccc(F)c(Cl)c1)C1CCCc2[nH]c(=O)c3c(c21)CCOC3 (single isomer, unassigned) : 5.49

CN(C(=O)Nc1ccc(F)c(Cl)c1)C1COCc2[nH]c(=O)c3ccsc3c21 (stereo not shown) yielded pEC50 of 7.10

pEC50 reading for CN(C(=O)N1Cc2ccc(Cl)cc2C1)C1CNCc2[nH]c(=O)c3cc(F)c(F)cc3c21 (single isomer, unassigned) : 4.68

Okay, next one:
Record CCN(C(=O)Nc1ccc(F)c(Cl)c1)C1COCc2[nH]c(=O)c3cc(F)ccc3c21 (stereo not shown) , field pEC50: 8.00
